protocol description: yeast display, Sf9 membrane polyspecificity reagent, FACS + sequencing; frameworks hold sequencing errors
measurement kind: polyreactivity (PSR sort gate)

construct sequence: QVQLQESGGGLVQAGGSLRLSCAASGTISSSDAMGWYRQAPGKEREFVATIASGTTTYYADSVKGSFTISRDNAENSVYLQTNSLKPEDTAVYYCAAPTIQIYPFYYWGQGTQVTVSS
result: high polyreactivity

construct sequence: QVQLVESGGGLVQAGGSLRLSCAASGRTITWYAMGWYRQAPGTERELVAAITRTGRTTYADSVKGRFTISRDNAKNTVYLQMNSLKPEDTAVYYCAARRWGEYDYWGQGTQVTVSS
result: high polyreactivity

---

protocol description: yeast display, Sf9 membrane polyspecificity reagent, FACS + sequencing; frameworks hold sequencing errors

construct sequence: QVQLVESGGGLVQAGGSLRLTCAASGSTFFPNDMGWYRQAPGKERELVDAISWRGGNTYADSVKGRFTISRDNAKNTVLLQMNSLKPEDTAVYYCAADVEWTSRGSYYRYYYWGQGTQVTVSS
polyreactivity (PSR sort gate): low polyreactivity

construct sequence: QVQLVESGGGLVQAGGSLRLSCAASGSTFRRYAMGWYRQAPGKERELVAAITTNGGSTYYADSVKGRFTISRDNAKNTVYLQMNSLKPEDTAVYYCNARWPYRQRGYDYWGQGTQVTVSS
polyreactivity (PSR sort gate): high polyreactivity

construct sequence: QVQLVESGGGLVQAGGSLRLSCAASGITFTVNAMGWYRQSPGKERELVAAISWSGGSTYYADSVKGRFTISRDNAKNTVYLQMNSLKPEDTAVYYCNAVLYRFAYNYWGQGTQVTVSS
polyreactivity (PSR sort gate): low polyreactivity

construct sequence: QVQLVESGGGLVQAGGSLRLSCAASGSIFGYYAMGWYRQAPGKERELVASISGSGGTTYYADSVKGRFTISRDNAKNTVYLQMNSLKPEDTAVYYCAARRSMYGYPFVTSRRGYWGHGTQVTVSS
polyreactivity (PSR sort gate): high polyreactivity

construct sequence: QVQLVESGGGLVQAGGSLRLSCAASGRIFRGNAMGWYRQAPGKERQLVADINRSGGSTYYADSVKGRFTISRDNAKNTVYLQMNSLKPEDTAVYYCNAKYRVPYAVGGDYGYWGQGTQVTVSS
polyreactivity (PSR sort gate): high polyreactivity

construct sequence: QFHLVETGGGLVQAGGSLRLSCAASGSTFSDYAMGSYRQAPGKERELVAGITETGTTTYYADSVNGRFTISRDNAKNTDYLQINSLKPEDTAVYYCAAFLVTYYYGTGYYSYDYWGQGTQVTVSS
polyreactivity (PSR sort gate): low polyreactivity

construct sequence: QVQLVESGGGLVQAGGSLRLSCAASGIIFQQYAMGWYRQAPGKERELVAAITYSGDGTYYADSVKGRFTISRDNAKNTVYLQMNSLKPEDTAVYYCAADVGYFKSDYWGQGTQVTVSS
polyreactivity (PSR sort gate): low polyreactivity

construct sequence: QVQLVESGGGLVQAGGSLRLSCAASGSIFPVYAMGWYRQAPGKDRELDATITDGGGDTYYADSVMGRFTISRDNAKNTVYLQMNSLKPEDTAVLYCAARSIPEWSAYWYDYWGQGTQVTVSS
polyreactivity (PSR sort gate): low polyreactivity

construct sequence: QFQLVESGGGLVQAGGSLRLSCAASGRTFRYYTMGWYRQAPGKEREFVAVITVNGGSTYYADSVKGRFTISRDNAKNTVYLQMNSLKPEDTAVYYCAKSYGSRHRYWPLYYWGQGTQVTVSS
polyreactivity (PSR sort gate): high polyreactivity

construct sequence: QVQLVESGGGLVQAGGSLRLSCAAYGSIFSYNAMGWYRPAPGKERELVAAITKSGGRTYYADSVKGRFTISRANAKNTVYLQMNSLKPEDTAVYYCNARSGSQYDYWGQGTQVTVSS
polyreactivity (PSR sort gate): high polyreactivity

construct sequence: QVQLVESGGGIVQAGGSLRLSCAASGTTIEYNAMGWYRQAPGKERELVASSTNYADSVKGRFTISRDNAKNTVYFQMNILKPEDTAVYYCAREQGVNRNHDYWGQGTQVTVSS
polyreactivity (PSR sort gate): low polyreactivity

Values compiled from the nanobody polyreactivity screen of Harvey et al. (2022).
